Target: Phospholipid hydroperoxide glutathione peroxidase GPX4 (Homo sapiens)
Test: Primary qHTS Assay for Inhibitors of Recombinant Selenoprotein Glutathione Peroxidase 4 (GPX4) (AID 1845192); note: nearly all actives have a fitted effect of over 65% in size
Conditions: recombinant GPX4, GR-coupled NADPH fluorescence, 15 min; series mostly up to 50 µM
Results filed as inconclusive are left out. Activity calls are given as the source filed them. Calls come from the whole dose curve; as a rule, active = well fitted inhibition curve with a large enough effect; inconclusive = small, poorly fitted or top-dose-only effect; inactive = flat fitted curve, though single readings scatter.
Labels: label 1 for active, label 0 for inactive

{"Compound": "CN(C)CCN(C)CCc1ccc(Cl)c(Cl)c1", "Class assignment": "label 0"}
{"Compound": "O=[N+]([O-])c1cc([As](=O)(O)O)ccc1O", "Class assignment": "label 0"}
{"Compound": "Clc1ccc(CCC(Cn2ccnc2)Sc2c(Cl)cccc2Cl)cc1 (centres undefined)", "Class assignment": "label 0"}
{"Compound": "CC(C)CC(N(C)C)C1(c2ccc(Cl)cc2)CCC1 (centres undefined)", "Class assignment": "label 0"}
{"Compound": "O=C(O)C(=O)c1cn(Cc2ccccc2)c2ccc(-c3ccc(OC(F)(F)F)cc3)cc12", "Class assignment": "label 1"}
{"Compound": "C=C(C)[C@H]1Cc2c(ccc3c2O[C@@H]2COc4cc(OC)c(OC)cc4[C@@H]2C3=O)O1", "Class assignment": "label 0"}
{"Compound": "CNC(=O)N1N=C(c2ccc(N)cc2)c2cc3c(cc2CC1C)OCO3 (centres undefined)", "Class assignment": "label 0"}
{"Compound": "CCCC1CCCCN1 (centres undefined)", "Class assignment": "label 0"}
{"Compound": "O=C1CC[C@@]2(O)[C@H]3Cc4ccc(O)c5c4[C@@]2(CCN3CC2CC2)[C@H]1O5", "Class assignment": "label 0"}
{"Compound": "CCC(COC(=O)c1cc(OC)c(OC)c(OC)c1)(c1ccccc1)N(C)C (centres undefined)", "Class assignment": "label 0"}
{"Compound": "COc1ccc(Cc2nccc3cc(OC)c(OC)cc23)cc1OC", "Class assignment": "label 0"}
{"Compound": "CC[C@@H](CO)NC(=O)[C@@H]1C=C2c3cccc4[nH]cc(c34)C[C@H]2N(C)C1", "Class assignment": "label 0"}
{"Compound": "CCC(C(N)=O)N1CCCC1=O (centres undefined)", "Class assignment": "label 0"}
{"Compound": "c1ccc(C2CC2)c(OCC2=NCCN2)c1", "Class assignment": "label 0"}
{"Compound": "CC(O)(CS(=O)(=O)c1ccc(F)cc1)C(=O)Nc1ccc(C#N)c(C(F)(F)F)c1 (centres undefined)", "Class assignment": "label 0"}
{"Compound": "N[C@@H](Cc1ccc(N(CCCl)CCCl)cc1)C(=O)O", "Class assignment": "label 0"}
{"Compound": "C[C@H]1O[C@@H](O[C@H]2[C@@H](O)C[C@H](O[C@H]3[C@@H](O)C[C@H](O[C@H]4CC[C@@]5(C)[C@H](CC[C@@H]6[C@@H]5CC[C@]5(C)[C@@H](C7=CC(=O)OC7)CC[C@]65O)C4)O[C@@H]3C)O[C@@H]2C)C[C@H](O)[C@@H]1O", "Class assignment": "label 0"}
{"Compound": "CC(C)(C)CC(C)(C)c1ccc(O)cc1", "Class assignment": "label 0"}
{"Compound": "CN1CCN(C(=O)O[C@H]2c3nccnc3C(=O)N2c2ccc(Cl)cn2)CC1", "Class assignment": "label 0"}
{"Compound": "Cn1c(CCCC(=O)O)nc2cc(N(CCCl)CCCl)ccc21", "Class assignment": "label 0"}
{"Compound": "CCC1(C2=NCCN2)Cc2ccccc2O1 (centres undefined)", "Class assignment": "label 0"}
{"Compound": "CCCN1CCC[C@@H]2Cc3nc(N)ncc3C[C@H]21", "Class assignment": "label 0"}
{"Compound": "CCCN1CCC[C@@H]2Cc3[nH]ncc3C[C@H]21", "Class assignment": "label 0"}
{"Compound": "C[C@]12CCC(=O)C(O)=C1CC[C@@H]1[C@@H]2CC[C@]2(C)C(=O)CC[C@@H]12", "Class assignment": "label 0"}
{"Compound": "CC(=O)[C@H]1CC[C@H]2[C@@H]3CC[C@H]4C[C@H](O)CC[C@]4(C)[C@H]3C(=O)C[C@]12C", "Class assignment": "label 0"}
{"Compound": "CC(CCc1ccccc1)NC(C)C(O)c1ccc(O)cc1 (centres undefined)", "Class assignment": "label 0"}
{"Compound": "C=C1CC[C@@]2(O)[C@H]3Cc4ccc(O)c5c4[C@@]2(CCN3CC2CC2)[C@H]1O5", "Class assignment": "label 0"}
{"Compound": "Cc1ccc(S(=O)(=O)N[C@@H](CCCCN)C(=O)CCl)cc1", "Class assignment": "label 0"}
{"Compound": "Fc1ccc(C(OCCN2CCN(CCCc3ccccc3)CC2)c2ccc(F)cc2)cc1", "Class assignment": "label 0"}

Source: PubChem BioAssay (NCATS)
